Target: T1, human CEACAM5 (human, UniProt P06731 35-685)
T1 construct: whole, on cells; Target on MKN-45 (DSMZ ACC409) and LS180 (ATCC CL-187) cells; also called carcinoembryonic antigen-related cell adhesion molecule 5; CD66e
T1 sequence (looked up): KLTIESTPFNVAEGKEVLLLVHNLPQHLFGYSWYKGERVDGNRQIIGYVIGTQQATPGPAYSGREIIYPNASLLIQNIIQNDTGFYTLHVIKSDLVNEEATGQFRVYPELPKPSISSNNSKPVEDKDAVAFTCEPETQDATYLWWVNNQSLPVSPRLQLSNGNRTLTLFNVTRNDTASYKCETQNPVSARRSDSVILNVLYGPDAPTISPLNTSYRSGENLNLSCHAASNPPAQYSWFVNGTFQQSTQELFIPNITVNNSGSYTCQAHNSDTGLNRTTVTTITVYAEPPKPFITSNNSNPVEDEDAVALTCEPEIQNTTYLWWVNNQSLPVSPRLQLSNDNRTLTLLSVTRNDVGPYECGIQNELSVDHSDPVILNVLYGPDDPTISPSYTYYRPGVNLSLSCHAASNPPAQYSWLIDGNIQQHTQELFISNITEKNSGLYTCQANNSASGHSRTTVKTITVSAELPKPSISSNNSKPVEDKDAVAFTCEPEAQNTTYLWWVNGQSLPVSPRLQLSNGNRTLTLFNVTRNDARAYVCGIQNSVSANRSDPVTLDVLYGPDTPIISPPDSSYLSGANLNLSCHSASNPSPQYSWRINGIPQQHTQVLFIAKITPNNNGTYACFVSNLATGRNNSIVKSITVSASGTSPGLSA
Assay: FACS on MKN-45 cells expressing human CEACAM5
measuredParameter: EC50 (µg/mL)
Give the value, in units of µg/mL, as a plain number.

Sample records with EC50:
P1AI5019 (antibody, human IgG1, name in Kabat numbering, V domains shown) VH: EVQLVESGGGLVQPGGSLRLSCAASGFNIKDTYMHWVRQAPGKGLEWVGRIDPANGNSKYADSVKGRFTISADTSKNTAYLQMNSLRAEDTAVYYCAPFGYYVSDYAMAYWGQGTTVTVSS VL: EIVLTQSPATLSLSPGERATLSCRAGESVDIFGVGFLHWYQQKPGQAPRLLIYRGSNRATGIPARFSGSGSGTDFTLTISSLEPEDFAVYYCGQTNEDYYTFGQGTKLEIK    2.49
T84.66-LCHA (P1AH2338) (antibody, V domains shown, also called humanized variant 1) VH: QVQLVQSGAEVKKPGSSVKVSCKASGFNIKDTYMHWVRQAPGQGLEWMGRIDPANGNSKYVPKFQGRVTITADTSTSTAYMELSSLRSEDTAVYYCAPFGYYVSDYAMAYWGQGTLVTVSS VL: EIVLTQSPATLSLSPGERATLSCRAGESVDIFGVGFLHWYQQKPGQAPRLLIYRASNRATGIPARFSGSGSGTDFTLTISSLEPEDFAVYYCQQTNEDPYTFGQGTKLEIK    0.989
P1AI5013 (antibody, human IgG1, V domains shown) VH: EVQLVESGGGLVQPGGSLRLSCAASGFNIKDTYMHWVRQAPGKGLEWVGRIDPANGNSKYADSVKGRFTISADTSKNTAYLQMNSLRAEDTAVYYCAPFGYYVSDYAMAYWGQGTTVTVSS VL: EIVLTQSPATLSLSPGERATLSCRAGESVDHFGVGFLHWYQQKPGQAPRLLIYRASNRATGIPARFSGSGSGTDFTLTISSLEPEDFAVYYCQQTNEDPYTFGQGTKLEIK    0.685

Now take the following binder into account.
Find the measured EC50 of P1AI5023 (antibody, human IgG1, name in Kabat numbering, V domains shown) VH: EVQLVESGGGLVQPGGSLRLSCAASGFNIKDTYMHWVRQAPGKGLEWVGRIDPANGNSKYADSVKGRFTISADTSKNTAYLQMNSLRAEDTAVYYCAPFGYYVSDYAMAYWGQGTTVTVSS VL: EIVLTQSPATLSLSPGERATLSCRAGESVDIFGVGFLHWYQQKPGQAPRLLIYRGSNRATGIPARFSGSGSGTDFTLTISSLEPEDFAVYYCGQTNEHPYTFGQGTKLEIK and report it.
7.21
